# System: ATP;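 also: ATP exposure 15 min at 22 °C before imaging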
# Measurement Protocol: switch fluorescence ratio, 500 uM ATP over buffer (Cy3 cluster intensity, sum of 5 cycles each) (fold (ratio)); higher = stronger signal-on switching upon ATP binding; sequences stand for … in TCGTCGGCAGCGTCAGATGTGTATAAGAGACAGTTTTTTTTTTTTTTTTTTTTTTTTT…TC
# Setup Conditions: aptamer strand: ATP DNA aptamer (quencher-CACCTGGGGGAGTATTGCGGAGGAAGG + anchor), 100 nM annealed; ATP concentration: 500 uM
Entry flag: yes (1) if switch fluorescence ratio reaches 1; no (0) if it does not.

switch fluorescence ratio >= 1 for CACGAGAACT ? yes (1)

switch fluorescence ratio >= 1 for CCAAGGGCTG ? yes (1)
